src = PubChem BioAssay AID1117283

method: inhibition of fibronectin matrix deposition – AH1F cells, Alexa488-fibronectin fluorescence, cherry-pick, set 2, dose response (AID 1117283);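 also: AH1F fibroblasts given Alexa488-labelled fibronectin at 24 nM final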
details: AH1F fibroblasts, overnight; series mostly up to 35 µM
Results with a measured potency or affinity are listed apart. The source made the active and inactive calls.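 The calls were made as follows: active = fluorescent signal decreased by at least 40%; inconclusive = no clear call, values can overlap the other calls; inactive = the rest, including activity opposite to the expected direction.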

- compound: "Cc1c(NC(=O)c2ccc3nsnc3c2)cccc1[N+](=O)[O-]"
  outcome: "inactive"
- compound: "N#C[C@H]1[C@@H](c2ccccc2C2=CCCCC2)[C@H](CO)N1S(=O)(=O)c1ccccc1"
  outcome: "inactive"
- compound: "C[C@H](CO)N1C[C@H](C)[C@@H](CN(C)Cc2ccccc2)Oc2ncc(-c3ccccc3)cc2C1=O"
  outcome: "inactive"
- compound: "Cc1ccc(S(=O)(=O)N2CC[C@@H]3[C@H]2c2cc(-c4cccc(C(=O)N(C)C)c4)ccc2N[C@@H]3CO)cc1"
  outcome: "inactive"
- compound: "Fc1cnc(N2CCN(c3ccccc3)CC2)nc1N1CCN(c2ccccc2)CC1"
  outcome: "inactive"
- compound: "O=S(=O)(c1cccc(F)c1)N1CC[C@@H]2[C@H](CO)Nc3ccc(-c4cccc(F)c4)cc3[C@@H]21"
  outcome: "inactive"
- compound: "CCOc1cccc(C(=O)Nc2ccc(N(CC)CC)cc2)c1"
  outcome: "inactive"
- compound: "C[C@H](O)C#Cc1ccc2c(c1)O[C@H](CN(C)C)[C@@H](C)CN([C@H](C)CO)S2(=O)=O"
  outcome: "inactive"
- compound: "CO[C@@H]1CN(C)C(=O)c2cc(NC(=O)Nc3cc(Cl)cc(Cl)c3)ccc2OC[C@H](C)NC[C@@H]1C"
  outcome: "inactive"
- compound: "NC(=O)C1=C[C@H](c2coc3ccccc3c2=O)C[C@H](OCCCCO)O1"
  outcome: "inactive"
- compound: "COCC(=O)Nc1ccc2c(c1)C(=O)N(C)[C@H]1CC[C@H](CC(=O)NCc3ccccc3Cl)O[C@H]1CO2"
  outcome: "inactive"
- compound: "O=C(Nc1cc(Sc2nc3ccccc3s2)cc([N+](=O)[O-])c1)c1ccccc1F"
  outcome: "inactive"
- compound: "COc1cccc(CNC(=O)CCc2nnc3ccc(NCCCN4CCCC4=O)nn23)c1"
  outcome: "inactive"
- compound: "C[C@H](CO)N1C[C@H](C)[C@@H](CN(C)Cc2ccc(-c3ccccc3)cc2)Oc2ccc(NC(=O)CCCN(C)C)cc2C1=O"
  outcome: "inactive"
- compound: "S=C(NCC1CCCO1)Nc1ccc(Cl)cc1Cl (stereo unspecified)"
  outcome: "inactive"
- compound: "O=S(=O)(c1ccccc1F)N1CC[C@@H]2[C@@H](CO)Nc3ccc(-c4cccc(F)c4)cc3[C@@H]21"
  outcome: "inactive"
- compound: "C[C@@H]1CN([C@H](C)CO)C(=O)c2cc(NC(=O)C3CCCCC3)ccc2O[C@@H]1CN(C)Cc1ccc(-c2ccccc2)cc1"
  outcome: "inactive"
- compound: "C[C@@H]1CN([C@@H](C)CO)C(=O)c2cccc(NC(=O)Nc3ccc(C(F)(F)F)cc3)c2O[C@@H]1CN(C)C(=O)Nc1cccc2ccccc12"
  outcome: "inactive"
- compound: "COc1ccccc1N(CC(=O)N(CC(C)C)CC(C)C)S(=O)(=O)c1cccs1"
  outcome: "inactive"
- compound: "CCCCOc1ccc(C(C)NC(=O)C2CCCN(S(=O)(=O)CCC)C2)cc1 (stereo unspecified)"
  outcome: "inactive"
- compound: "COc1ccc(C)cc1N(CC(=O)Nc1cccc(N(C)S(C)(=O)=O)c1)S(C)(=O)=O"
  outcome: "inactive"
- compound: "N#C[C@@H]1[C@@H](c2ccccc2C2=CCCCC2)[C@@H](CO)N1S(=O)(=O)c1ccccc1"
  outcome: "inactive"
- compound: "C[C@H]1CN([C@@H](C)CO)C(=O)c2cc(-c3ccccc3)cnc2O[C@H]1CN(C)C(=O)c1cccc(F)c1"
  outcome: "inactive"
- compound: "C[C@@H]1CN([C@H](C)CO)C(=O)c2cc(-c3ccccc3)cnc2O[C@@H]1CN(C)Cc1ccccc1"
  outcome: "inactive"
- compound: "C[C@H]1CN([C@@H](C)CO)C(=O)c2cc(NC(=O)CCCN(C)C)ccc2O[C@H]1CN(C)Cc1ccc(-c2ccccc2)cc1"
  outcome: "inactive"
- compound: "Cc1cccc(NC(=O)Nc2ccc(S(=O)(=O)Nc3onc(C)c3C)cc2)c1"
  outcome: "inactive"
- compound: "O=C(Nc1ccccc1F)N1C[C@@H]2[C@H](c3ccccc31)[C@@H](CO)N2C(=O)C1CC1"
  outcome: "inactive"
- compound: "O=S(=O)(c1ccccc1F)N1CC[C@@H]2[C@H](CO)Nc3ccc(-c4cccc(F)c4)cc3[C@@H]21"
  outcome: "inactive"
- compound: "COc1cccc(-c2ccc3c(c2)[C@@H]2[C@@H](CCN2S(=O)(=O)c2cccc(OC)c2)[C@@H](CO)N3)c1"
  outcome: "inactive"
- compound: "CC(C)CNC(=O)c1coc(=O)c(Br)c1"
  outcome: "inactive"
- compound: "CO[C@@H]1CN(C)C(=O)c2ccc(NC(=O)c3ccc(-c4ccccc4)cc3)cc2OC[C@@H](C)NC[C@@H]1C"
  outcome: "inactive"
- compound: "O=C(Nc1nc(-c2ccncc2)cs1)C1COc2ccccc2O1 (stereo unspecified)"
  outcome: "inactive"
- compound: "CC1CN(C(=O)c2cc3c(=O)n4ccccc4nc3n2C)CC(C)O1 (stereo unspecified)"
  outcome: "inactive"
- compound: "Cc1cc(C)c(S(=O)(=O)Nn2cnnc2)c(C)c1"
  outcome: "inactive"
- compound: "O=C(c1cccnc1)N1C[C@@H]2[C@H](c3ccccc31)[C@@H](CO)N2CC1CCCC1"
  outcome: "inactive"
- compound: "Cc1cccc(NC(=O)c2ccc(C3SCC(=O)N3CCc3ccccc3)cc2)c1 (stereo unspecified)"
  outcome: "inactive"
